- subject_of_test: UniProtKB P19793
- Sequence (P19793 whole entry): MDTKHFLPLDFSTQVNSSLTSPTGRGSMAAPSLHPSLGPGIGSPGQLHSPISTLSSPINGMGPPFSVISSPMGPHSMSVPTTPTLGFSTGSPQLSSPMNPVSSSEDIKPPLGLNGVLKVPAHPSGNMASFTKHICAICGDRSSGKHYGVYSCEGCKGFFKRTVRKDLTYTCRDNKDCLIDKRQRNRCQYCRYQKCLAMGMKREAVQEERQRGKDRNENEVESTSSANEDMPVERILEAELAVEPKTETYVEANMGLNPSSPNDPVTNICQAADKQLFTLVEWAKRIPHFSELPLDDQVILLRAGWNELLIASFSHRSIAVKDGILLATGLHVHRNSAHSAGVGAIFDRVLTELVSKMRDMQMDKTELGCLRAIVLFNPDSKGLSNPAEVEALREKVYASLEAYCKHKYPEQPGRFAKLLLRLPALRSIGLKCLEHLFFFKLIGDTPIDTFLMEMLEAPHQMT
- experiment: Transcriptional activation in CV-1 cells expressing Retinoid X receptor RXR alpha
- Type: functional, cell-based
assay_metric: pEC50
The scale used: pEC50 is minus the common logarithm of the concentration in molar units.

Ask: Which pEC50 value is on record for CC(/C=C/C=C(\C)c1cc(C(C)(C)C)cc(C(C)(C)C)c1)=C\C(=O)O (stereo in doubt; form 1) ?
Reply: 6.87
